System: SNB-75
ASSAY: Cytotoxicity against human SNB75 cells
Assay type: functional
EXPERIMENTAL_PARAMETERS: read-out: pGI50 (converted)
# log10 of GI50 listing for each entry below
Note: values are log10 of GI50 expressed in nM.

Worked cases, log10 of GI50 given:
- COMPOUND: "Nc1ccccc1C#C/C=C\\C#CC#C/C=C\\C#Cc1ccccc1N"
  log10 of GI50: 3.50
- COMPOUND: "COc1ccc(/C=C\\c2cc(OC)c(OC)c(OC)c2)cc1O [COMBRETASTATIN A4]"
  log10 of GI50: 2.90

log10 of GI50 of Nc1ccccc1C#C/C=C\C#Cc1ccccc1[N+](=O)[O-] on SNB-75? 4.10

Do the same for Nc1ccccc1C#C/C=C\C#Cc1c(F)c(F)c(F)c(F)c1F please 4.60
